Biological target: UniProt P18910
Assay: GC assay
Assay type: biochemical
Settings: EC50 for activation, NP-stimulated, 0.1 mM GTP
Readout Name: EC50 (µM)
Expressed in µM, but write only the number.

Fill in the recorded EC50 for this molecule, with UniProt P18910 as test system: Nc1ncnc2c1ncn2[C@@H]1O[C@H](COP(=O)(O)OP(=O)(O)OP(=O)(O)O)[C@@H](O)[C@H]1O [ATP, adenosine triphosphate]
77

###

Molecular target: GC-A (Rattus norvegicus, UniProt P18910)
Sequence (P18910 29-1057): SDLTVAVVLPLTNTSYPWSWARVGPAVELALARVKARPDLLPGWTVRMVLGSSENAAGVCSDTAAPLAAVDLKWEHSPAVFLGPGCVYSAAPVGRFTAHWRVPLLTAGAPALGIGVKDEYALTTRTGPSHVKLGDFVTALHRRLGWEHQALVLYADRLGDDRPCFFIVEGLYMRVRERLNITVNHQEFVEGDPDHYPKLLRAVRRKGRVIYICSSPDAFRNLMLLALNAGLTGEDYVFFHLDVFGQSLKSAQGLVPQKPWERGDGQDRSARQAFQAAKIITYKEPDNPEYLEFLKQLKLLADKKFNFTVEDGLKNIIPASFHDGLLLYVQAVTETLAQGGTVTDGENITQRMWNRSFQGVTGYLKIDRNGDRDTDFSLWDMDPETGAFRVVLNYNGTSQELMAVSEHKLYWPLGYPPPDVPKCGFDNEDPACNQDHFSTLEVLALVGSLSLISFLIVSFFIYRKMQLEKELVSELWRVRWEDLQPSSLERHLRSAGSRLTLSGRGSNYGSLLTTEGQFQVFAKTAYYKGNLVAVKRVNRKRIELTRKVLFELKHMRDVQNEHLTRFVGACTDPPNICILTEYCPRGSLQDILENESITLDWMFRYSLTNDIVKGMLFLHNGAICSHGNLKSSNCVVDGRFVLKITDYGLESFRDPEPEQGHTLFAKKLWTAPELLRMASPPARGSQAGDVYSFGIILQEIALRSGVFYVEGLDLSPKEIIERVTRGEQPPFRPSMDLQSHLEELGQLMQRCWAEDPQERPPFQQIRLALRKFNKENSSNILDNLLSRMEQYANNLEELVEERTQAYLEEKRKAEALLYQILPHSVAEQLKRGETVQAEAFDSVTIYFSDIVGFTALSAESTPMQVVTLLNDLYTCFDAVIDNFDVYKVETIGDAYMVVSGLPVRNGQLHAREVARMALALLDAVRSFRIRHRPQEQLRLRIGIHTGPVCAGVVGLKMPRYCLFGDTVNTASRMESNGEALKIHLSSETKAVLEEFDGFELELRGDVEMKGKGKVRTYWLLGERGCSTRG
Sequence (P01161 123-150 partner limits assumed): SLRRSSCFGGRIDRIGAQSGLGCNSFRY
Assay: GC assay
Type: biochemical
Details: EC50 for activation, NP-stimulated, 5.4 mM GTP
Readout Name: EC50

Which EC50 value is on record for Nc1ncnc2c1ncn2[C@@H]1O[C@H](COP(=O)(O)OP(=O)(O)OP(=O)(O)O)[C@@H](O)[C@H]1O [ATP, adenosine triphosphate] ?
16 µM
